Every entry's value here was drawn from PubChem BioAssay AID729.

Target: Sphingosine 1-phosphate receptor 2 (Homo sapiens) (UniProt O95136)
Sequence (O95136 whole entry, looked up): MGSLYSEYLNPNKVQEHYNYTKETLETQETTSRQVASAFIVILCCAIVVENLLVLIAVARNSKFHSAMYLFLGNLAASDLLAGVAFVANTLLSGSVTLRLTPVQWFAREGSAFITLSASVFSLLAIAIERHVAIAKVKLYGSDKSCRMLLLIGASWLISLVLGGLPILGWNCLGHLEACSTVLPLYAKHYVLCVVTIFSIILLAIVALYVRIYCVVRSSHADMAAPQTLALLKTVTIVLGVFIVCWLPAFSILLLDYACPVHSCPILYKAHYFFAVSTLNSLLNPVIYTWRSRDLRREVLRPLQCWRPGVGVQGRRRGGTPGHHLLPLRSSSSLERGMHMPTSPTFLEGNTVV
Assay: activation of human S1P2 receptor – cell-based, primary screen (AID 729);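 also: 0% = vehicle low control and 100% = maximal reference agonist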
Settings: S1P2-expressing cell line, agonist reporter read-out; at 4.5 µM; stronger effect = higher value
Hit rate of the full screen: of about 97,000 compounds, about 450 (0.46%) were called active. What follows is part of a selection rich in actives, with near analogues and random picks from the rest.
Please go through the items and note down their activation.
One number for each entry, in %.

Check out these entries, answers already filled in.
CC(CN1CCOCC1)c1ccccc1 (stereo unspecified) = -0.64
CCCC1(C(=O)OCC)NC(c2ccc(N(C)C)cc2)C2C(=O)N(c3ccc4c(c3)OCCO4)C(=O)C21 (stereo unspecified) = -0.77
Cc1ccc(S(=O)(=O)N2CCN(S(=O)(=O)N3CCOCC3)CC2)cc1 = -6.81

Could I get activation for every one of these entries?
1. CCc1nc(C)ccc1OCC(=O)N(CC)CC
2. O=C(NCCc1ccccc1)c1ccc(NC2=NC3CS(=O)(=O)CC3S2)cc1 (stereo unspecified)
3. CC(C)C(=O)Nc1nnc(Sc2ccc(N(C)C)cc2)s1
4. CNC(=O)CN1C(=O)c2ccccc2S1(=O)=O
5. CN1C(=O)C(CC(N)=O)N(NC(=O)c2ccc(Cl)cc2)C1=S (stereo unspecified)
6. Cc1nnc(SCC(=O)Nc2ncc3c(n2)CC(C)(C)CC3=O)s1
7. N/C(=N\OC(=O)CCC1CCCCC1)c1ccccn1
8. CN(C)CCCn1c(N)c(C#N)c2nc(C#N)c(C#N)nc21

Result ::
-0.52
0.04
-5.86
-1.63
-7.47
-4.47
-3.14
12.8

* * *

Biological target: Sphingosine 1-phosphate receptor 2 (Homo sapiens) (UniProt O95136)
Test: activation of human S1P2 receptor – cell-based, primary screen (AID 729);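 also: 0% = vehicle low control and 100% = maximal reference agonist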
Conditions: S1P2-expressing cell line, agonist reporter read-out; at 4.5 µM; stronger effect = higher value
In all, about 97,000 compounds went through this assay and about 450 (0.46%) were called active. This excerpt belongs to a sample that is enriched for actives.
Provide the reported activation of each item.

COc1ccccc1CCNC(=O)c1cnccn1 = -1.07% (inactive)
O=S(=O)(NCC1OCCc2ccccc21)c1ccccc1 (stereo unspecified) = 0.09% (inactive)
N#Cc1ccc(-c2ccc(Cl)cc2)nc1Oc1ccc(F)cc1 = -3.88% (inactive)
OC(C#CCN1CCOCC1)(c1ccccc1)C1CCCCC1 (stereo unspecified) = -4.7% (inactive)
CN(c1cccc(NC(=O)Nc2ccc(Cl)cc2)c1)S(C)(=O)=O = -3.59% (inactive)

Give activation for all compounds that follow.
1. Cn1c(=O)n(C)c2cc(/C=N/NC(=O)c3cccc(Br)c3)ccc21
2. O=C1CCCc2nn(-c3ccccc3)nc21
3. O=C(Cn1cnc2ccccc2c1=O)NCC1COc2ccccc2O1 (stereo unspecified)
4. CCn1cc(C(=O)NCc2ccc3c(c2)OCO3)c2cc(OC)c(OC)cc2c1=O

Result ::
-7.52% (inactive)
-3.05% (inactive)
-3.16% (inactive)
14.1% (inactive)

Respectfully, I request activation for each entry included below.
1. Cc1ccc(S(=O)(=O)/N=C(/Nc2ccccn2)c2ccc(Cl)cc2)cc1
2. Cc1ccc(/C=N/NC(=O)C2=NNC(c3ccccc3)(c3ccccc3)C2)c(O)c1

Result ::
-4.9% (inactive)
2.35% (inactive)

* * *

Molecular target: Sphingosine 1-phosphate receptor 2 (Homo sapiens) (UniProt O95136)
Assay: activation of human S1P2 receptor – cell-based, primary screen (AID 729);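 also: 0% = vehicle low control and 100% = maximal reference agonist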
Settings: S1P2-expressing cell line, agonist reporter read-out; at 4.5 µM
Out of some 97,000 compounds screened, about 450 (0.46%) were called active. Cut-off read from the data, not from the text of the source: active = activation above about 16%; inactive = the rest. This excerpt belongs to a sample that is enriched for actives.
Can you answer with just one of these options? active, inactive

Check out these entries, answers already filled in.
Cc1cccc(C)c1NC1=NC(=S)N(c2ccc(N(C)C)cc2)C1(C)C = inactive
COc1ccc(C2C(C(C)=O)=C(O)C(=O)N2Cc2cccnc2)cc1 (stereo unspecified) = inactive

Query :: For Cc1c(Nc2nc3ccccc3nc2NS(=O)(=O)c2cccs2)c(=O)n(-c2ccccc2)n1C , what call appears in the results of this test?
Result :: inactive

Query :: How did this test come out for CSc1nc2ccccc2cc1/C=C(\C#N)c1ccc(Cl)cc1Cl ?
Result :: active

Query :: For Cc1nn(C)cc1C(=O)NNC(=S)Nc1ccc(Cl)cc1 , what call appears in the results of this test?
Result :: inactive

Query :: Kindly provide the recorded test outcome for the following compound: CN(C)S(=O)(=O)c1ccc(N2CCCC2)c(C(=O)NCc2ccccc2)c1
Result :: inactive

Query :: Check the results log: what was the call for O=C(/C=C/c1cccs1)c1cc(Cl)ccc1OC(=O)N1CCOCC1 ?
Result :: inactive

Query :: Which outcome was assigned to Cc1nc2ccc(C(=O)N3CCN(c4ccccc4)CC3)cc2s1 in this test?
Result :: inactive

Query :: State the result this test recorded for CSc1nc(N)c(C#N)c(-c2ccccc2Cl)c1C#N .
Result :: inactive

Query :: Record lookup: outcome of this test for Cc1c(NC(=O)c2cc(-c3ccc(Cl)s3)nc3ccccc23)c(=O)n(-c2ccccc2)n1C ?
Result :: inactive

Query :: What is the recorded call for this compound in the test? COC(=O)c1cc(OC)c(OC)cc1NC(=O)CSc1ccc(C)cc1
Result :: inactive

* * *

What activation was measured for each of the following?
Biological target: Sphingosine 1-phosphate receptor 2 (Homo sapiens)
Test: activation of human S1P2 receptor – cell-based, primary screen (AID 729);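 also: 0% = vehicle low control and 100% = maximal reference agonist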
Conditions: S1P2-expressing cell line, agonist reporter read-out; at 4.5 µM; stronger effect = higher value
Hit rate of the full screen: of about 97,000 compounds, about 450 (0.46%) were called active. The list comes from a sample in which actives are over-represented; it also holds close analogues and randomly drawn compounds.
One number for each entry, in %.

CC1(C)Cc2c(C#N)c(SCc3nc4ccccc4[nH]3)nc(N3CCOCC3)c2CO1 = 31
CN(C)c1ccc(/C=C2\NC(=S)N(Cc3ccccc3)C2=O)cc1 = -4.43
CCOc1cc(C2C(C(=O)OC)=CN(C3CCCC3)C=C2C(=O)OC)cc(Br)c1O = 7.13
COc1ccc(-n2nnnc2SCC(=O)Nc2ccccc2)cc1 = -5.85
Nc1c(C(=O)NCc2ccccc2)sc2nc3c(cc12)C(=O)CCC3 = -2.41

Let's switch to this compound now.
Query :: Give activation (Sphingosine 1-phosphate receptor 2 (Homo sapiens)) of the following compound: CC1Cc2ccccc2N1CC(=O)Nc1ccc2c(c1)OC(F)(F)O2 (stereo unspecified)
Result :: 2.93

* * *

Biological target: Sphingosine 1-phosphate receptor 2 (Homo sapiens) (UniProt O95136)
Assay: activation of human S1P2 receptor – cell-based, primary screen (AID 729);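 also: 0% = vehicle low control and 100% = maximal reference agonist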
Settings: S1P2-expressing cell line, agonist reporter read-out; at 4.5 µM; stronger effect = higher value
Among all 97,000 compounds or so, about 450 (0.46%) were called active. Only a selection was taken, and actives are over-represented in it overall.
metric: activation (%)
Give bare numbers, in %.

CN(C)CCNC(=O)Nc1cccc(Cl)c1Cl = -3.84
CCCc1nc2oc3c(OCC)ncnc3c2c2c1COC(C)(C)C2 = -0.19
O=C1CCCc2c1nc(-c1cccc(Cl)c1)n2O = -8.02
O=C1CSC(c2cccc(F)c2)N1c1ccc(O)cc1 (configuration not stated) = -7.24
COc1ccc(-c2cc(C(=O)n3cnc4ccccc43)c3ccccc3n2)cc1 = -1.61
O=C(Nc1ccccc1Cl)N1CCN(c2ccc3nncn3n2)CC1 = -1.47

Now consider a different molecule.
Query :: Could you tell me which activation is on file for Cc1nnc(SCCCn2c(N3CCCCC3)nc3c2c(=O)[nH]c(=O)n3C)s1 ?
Result :: -7
